# credit: patent US12448369B2

# Tested on: Porcine atria myofibrils (atrial myosin ATPase)
# experimentDescription: Myofibril ATPase assay, porcine atria myofibrils
# Assay type: biochemical
# conditionNotes: porcine atria myofibrils; Y75 value (75% activity relative to no compound)
Binarize Atrial EC25 at 3 µM; below is 1, at or above is 0.

Solved cases (3 shown):
Cc1nccc2[nH]c(=O)c(CC(=O)N[C@H]3CCc4cc(C#N)cc(F)c43)c(C)c12 (single isomer, unassigned) [compound 198] | 1
Cc1nccc2[nH]c(=O)c([C@@H](C)C(=O)N[C@@H](C)c3ccc(F)cc3F)c(C(F)(F)F)c12 (single isomer, unassigned) [compound 410] | 0
Cc1c(C(F)(F)C(=O)N[C@H](CO)c2ncc(C#N)cc2F)c(=O)[nH]c2ccnc(C#N)c12 (single isomer, unassigned) [compound 3502] | 1

Please state whether Atrial EC25 is below 3 µM for Cc1c(CC(=O)N[C@@H](C)c2ccc(F)cc2F)c(=O)[nH]c2ccnc(NCC(C)C)c12 [compound 277]
0

Cc1c(CC(=O)N[C@@H](CO)c2ccc(C#N)cc2F)c(=O)[nH]c2ccnc(C(F)(F)F)c12 (single isomer, unassigned) [compound 225] , same question.
1

Cc1c(CC(=O)N[C@H](CO)c2ccc(F)cc2F)c(=O)[nH]c2ccnc(C#N)c12 [compound 229] , same question.
0
